target.desc: T1, recombinant mouse TfR2 (mouse, UniProt Q9JKX3 103-798, limits assumed)
T1 construct: Negative control protein
T1 sequence (looked up): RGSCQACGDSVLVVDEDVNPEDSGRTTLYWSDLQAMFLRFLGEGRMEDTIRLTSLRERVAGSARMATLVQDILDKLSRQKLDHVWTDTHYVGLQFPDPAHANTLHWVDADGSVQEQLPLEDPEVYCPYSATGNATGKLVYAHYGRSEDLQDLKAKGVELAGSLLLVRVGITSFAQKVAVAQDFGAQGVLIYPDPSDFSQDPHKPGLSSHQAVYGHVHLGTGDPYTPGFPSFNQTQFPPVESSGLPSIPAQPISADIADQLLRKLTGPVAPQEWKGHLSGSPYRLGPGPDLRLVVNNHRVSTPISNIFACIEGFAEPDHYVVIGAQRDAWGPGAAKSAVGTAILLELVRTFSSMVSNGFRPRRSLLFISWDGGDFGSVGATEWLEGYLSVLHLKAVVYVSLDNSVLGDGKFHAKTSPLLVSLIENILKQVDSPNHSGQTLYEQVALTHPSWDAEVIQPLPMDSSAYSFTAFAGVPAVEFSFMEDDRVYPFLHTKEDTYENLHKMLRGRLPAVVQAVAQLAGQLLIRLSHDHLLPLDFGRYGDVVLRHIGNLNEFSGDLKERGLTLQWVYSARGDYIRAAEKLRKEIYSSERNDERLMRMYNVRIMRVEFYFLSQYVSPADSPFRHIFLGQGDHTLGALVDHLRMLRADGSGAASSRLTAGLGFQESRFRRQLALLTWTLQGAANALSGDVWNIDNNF
test.details: phage ELISA
observation.type: binding result

For orientation, consider the following solved cases.
• SEQ ID NO 2 (VNAR clone displayed on phage) (VNAR, shark VNAR domain on M13 phage; coat-protein fusion not described; also called clone 2) VNAR: ARVDQTPQTITKETGESLTINCVLRDNNCALSTTYWYRKKSGSTNEENISKGGRYVETVNSGSKSFSLKINDLTVEDSGTYRCNVFGVDNGWWCDVYGGGTVVTVNA = no binding
• SEQ ID NO 33 (VNAR clone displayed on phage) (VNAR, shark VNAR domain on M13 phage; coat-protein fusion not described) VNAR: ARVDQTPQTITKETGESLTINCVLRDSNCDLSRTYWYRKKQGSTNEESISKGGRYVETVNSGSKSFSLRINDLTVEDSGTYRCNVALYHFTGCSRVQDVYGGGTVVTVNA = no binding
• SEQ ID NO 51 (VNAR clone displayed on phage) (VNAR, shark VNAR domain on M13 phage; coat-protein fusion not described) VNAR: ARVDQTPRSVTKETGESLTINCVLRDASYALGSTCWYRKKSGSTNEESISKGGRYVETVNSGSKSFSLRINDLTVEDSGTYRCNVIQYLYLGSYFACDVYGGGTVVTVNA = no binding
• SEQ ID NO 7 (VNAR clone displayed on phage) (VNAR, shark VNAR domain on M13 phage; coat-protein fusion not described; also called clone 7) VNAR: ARVDQTPQTITKETGESLTINCVLRDSNCELSSTYWYRKKSGSTNEARISKGGRYVETVNSGSKSFSLKINDLTVEDSGTYRCNVLTTDSYDLGDVYGDGTVVTVNA = no binding
• SEQ ID NO 1 (VNAR clone displayed on phage) (VNAR, shark VNAR domain on M13 phage; coat-protein fusion not described; also called clone 1) VNAR: ARVDQTPQTITKETGESLTINCVLRDNNCALSTTYWYRKKSGSTNEENISKGGRYVETVNSGSKSFSLKINDLTVEDSGTYRCNVRDVQACGNDWVWLDVYGGGTVVTVNA = no binding

Value sought for every listed binder: binding result.
1. SEQ ID NO 41 (VNAR clone displayed on phage) (VNAR, shark VNAR domain on M13 phage; coat-protein fusion not described) VNAR: ARVDQTPQTITKETGESLTINCVLRDSNCALSSTLWYRTKSGSRNEESISKGGRYVETVNSGSKSFSLKINDLTVEDSGTYRCKVCRQCCVATCDDLSLLCDVYGDGTAVTVNA
2. SEQ ID NO 32 (VNAR clone displayed on phage) (VNAR, shark VNAR domain on M13 phage; coat-protein fusion not described) VNAR: ARVDQTPQTITKETGESLTINCVLRDSNCALSNLYWYRKKSGSRNEESISKGGRYVETVNSGSKSFSLKINDLTVEDSGTYRCKVFGMRTHCQWVIYRITDVYGGGTAVTVNA
3. SEQ ID NO 44 (VNAR clone displayed on phage) (VNAR, shark VNAR domain on M13 phage; coat-protein fusion not described) VNAR: ARVDQTPRSVTKETGESLTINCVLRDASYALGSTCWYRKKSGSTNEESISKGGRYVETVNSGSKSFSLRINDLTVEDGGTYRCGVCQCWSANVWVDCDMTSTSIRMRDGSRSNARAACGDGTAVTVNA

1. no binding
2. no binding
3. no binding

Value source: patent US20220031857A1
